# Study target: Cytochrome P450 3A4 (Homo sapiens)
# Test: Cytochrome panel assay with activity outcomes
# Condition context: recombinant CYP, pro-luciferin dealkylation, luminescence, p450-cyp3a4; series mostly up to 57.1 µM
# Experimental: The P450 gene superfamily is involved in the metabolism and clearance of xenobiotics. This assay used various human CYP P450 isozymes to measure the dealkylation of various pro-luciferin substrates to luciferin. The luciferin is then measured by luminescence after the addition of a luciferase detection reagent. […] Inhibitors and some substrates limit the production of luciferin, and decrease measured luminescence. […] 8, Detection, 1 sec, ViewLux luminescent read […]
The campaign covered roughly 16,000 compounds. About 5,100 (32%) were called active. Another 25% or so got no clear call; they are omitted. Some of the results follow.
Property name: AC50

Example entries and their recorded answers appear below.
>  <Compound>
Cc1nn(-c2ccccc2)c(Cl)c1/C=N/NC(=O)c1ccco1

>  <Study target>
Cytochrome P450 3A4 (Homo sapiens)

>  <Property name>
AC50

>  <Reported measurement>
inactive

$$$$
>  <Compound>
Cn1cccc1C(=O)N1CCC2(CCCN(c3cccc(-c4ccccc4)c3)C2)CC1

>  <Study target>
Cytochrome P450 3A4 (Homo sapiens)

>  <Property name>
AC50

>  <Reported measurement>
10 µM (active)

$$$$
>  <Compound>
CC[N+](CC)(CC)CC

>  <Study target>
Cytochrome P450 3A4 (Homo sapiens)

>  <Property name>
AC50

>  <Reported measurement>
inactive

$$$$
>  <Compound>
Cn1cccc1C(=O)N1CCC[C@@]2(CCN(c3ccccc3)C2)C1

>  <Study target>
Cytochrome P450 3A4 (Homo sapiens)

>  <Property name>
AC50

>  <Reported measurement>
10 µM (active)

$$$$
>  <Compound>
Cn1cccc1C(=O)N1CCC2(CCCN(c3ncccn3)C2)CC1

>  <Study target>
Cytochrome P450 3A4 (Homo sapiens)

>  <Property name>
AC50

>  <Reported measurement>
inactive

$$$$

The compound listed as COc1ccc(C(=O)NCCCN2CCOCC2)cc1OC shows AC50 equal to inactive

The compound listed as CCOc1cc(/C=N/NC(=O)CNc2cccc(C)c2)ccc1OC(=O)c1ccccc1 shows AC50 equal to inactive

Per the records, this compound ( COc1ccc2c(c1)C(=O)N(c1ccccc1)C(=O)C2 ) has AC50 equal to 2.24 µM (active)

// AC50 value for CC(=O)SCC[N+](C)(C)C : inactive

Consider N[C@H](C(=O)O)[C@@H]1[C@@H](C(=O)O)C1(F)F . Its measured AC50 is inactive

AC50 reading for Cn1c(=O)c2c(ncn2C[C@@H](O)CO)n(C)c1=O : inactive

AC50 measured on CC1CCCC(C)N1CCNC(=O)Cn1nc(-c2ccccc2)ccc1=O (stereo not given) = inactive

Measured AC50, COc1ccc(-n2nc(C(=O)NCC(=O)Nc3ccccn3)c3ccccc3c2=O)cc1 : 3.55 µM (active)
